Reference source: the supplement of paper PMC10567573

B1: PSD2 (parent)
chain: LTHFSRRYCQCNPDDSTSEDGIHT

Variants of: B1
Assay text: protein stability index of a GFP-peptide fusion (GPS, HEK-293T) (PSI 1-6); higher = more stable;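 also: lentivirally expressed fusions sorted by FACS into six bins by GFP to DsRed ratio, PSI derived from sequencing read proportions per bin multiplied by bin number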
Measurement conditions: c terminus: a fixed tail appended
Reported endpoint: protein stability index

- Variant label: "T17A"
  Reported endpoint: "protein stability index"
  Measured number: 3.02
- Variant label: "Y8C"
  Reported endpoint: "protein stability index"
  Measured number: 3.01
- Variant label: "E19H"
  Reported endpoint: "protein stability index"
  Measured number: 2.95
- Variant label: "S18I"
  Reported endpoint: "protein stability index"
  Measured number: 2.99
- Variant label: "R7Y"
  Reported endpoint: "protein stability index"
  Measured number: 2.92
- Variant label: "S16H"
  Reported endpoint: "protein stability index"
  Measured number: 2.95
- Variant label: "T24I"
  Reported endpoint: "protein stability index"
  Measured number: 3.05
- Variant label: "T2I"
  Reported endpoint: "protein stability index"
  Measured number: 3.01
